Origin of measurements: patent US20190033318A1

biological target: T1, 1α PASB (HIF-1α PASB domain, 238-349) (UniProt Q16665 238-349, labelled with NT-647-NHS dye in MST); test: MST, HIF-1α PASB domain
T1 construct: range 238-349; not shown: His6 tag of vector pET28, then Met
T1 sequence (Q16665 238-349): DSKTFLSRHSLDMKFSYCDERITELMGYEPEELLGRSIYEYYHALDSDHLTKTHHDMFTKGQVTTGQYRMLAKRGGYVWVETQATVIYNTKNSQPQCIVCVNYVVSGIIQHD
Starred links: 1 amine or outer side, 2 acyl side, 3 side chain; linkers in the order of their positions; H or OH if unused. Non-standard residues stand in square brackets, D forms with d. Tyr(Me) = 4-methoxyphenylalanine (O-methyl-tyrosine), COc1ccc(C[C@H](N[*:1])C(=O)[*:2])cc1; Phe(4-CN) = N#Cc1ccc(C[C@H](N)C(=O)O)cc1; Phe(4-Me) = Cc1ccc(C[C@H](N)C(=O)O)cc1
OBSERVED PROPERTY: Kd (µM)
One number for each entry, in µM.

These solved cases illustrate the format of a correct answer.
# BINDER, SCALE UNIT, Kd
rows = [
    ("cyclo(CRLLI[Phe(4-CN)]) (also called CRLLIX where X = 4-CN-F) [CRLLI(4-CN-F)]", "µM", 10),
    ("cyclo(CRLLI[Tyr(Me)]) (SMILES CC[C@H](C)[C@@H]1NC(=O)[C@H](CC(C)C)NC(=O)[C@H](CC(C)C)NC(=O)[C@H](CCCNC(=N)N)NC(=O)[C@H](CS)NC(=O)[C@H](Cc2ccc(OC)cc2)NC1=O, also called CRLLIX where X = 4-MeO-F) [CRLLI(4-MeO-F)]", "µM", 10.8),
    ("cyclo(CRLLI[Phe(4-Me)]) (also called CRLLIX where X = 4-Me-F) [CRLLI(4-Me-F)]", "µM", 9.61),
]

Now take the following binder into account.
INPUT: Fill in Kd for record CRLLIW (cyclic analogue of cyclo-CRLLIF)
OUTPUT: 7.7
